# Test system: test plant species in Direct Seeded Rice
# method: Postemergence herbicidal activity in direct seeded rice (Table 13)
# Type: in vivo
# protocol conditions: SEBEX: hemp sesbania, Sesbania exaltata; probit analysis
Measured GR50 SEBEX by item
property: GR50 SEBEX (g ai/ha)

smiles_code=COc1c(N)nc(-c2cc(F)c(Br)cc2F)nc1C(=O)O measured_number=3
smiles_code=COC(=O)c1nc(-c2ccc(C#N)c(F)c2)c(F)c(N)c1Cl measured_number=1
smiles_code=Nc1c(Cl)c(C(=O)O)nc(-c2ccc(I)cc2)c1Cl measured_number=1
smiles_code=Nc1cc(-c2ccc(I)cc2F)nc(C(=O)O)c1Cl measured_number=1
smiles_code=COC(=O)c1nc(-c2ccc(Br)cc2)c(Cl)c(N)c1Cl measured_number=1

====

Measured pest or weed control at 140 g/ha by item
# Test system: Key Grass and Sedge Weeds as well as Grass Crops
# method: Post-emergent Test II herbicidal activity (Table 6)
# Assay type: in vivo
# protocol conditions: post-emergence, 336 h, TRZSS (wheat, Triticum aestivum), application rate 140 g ai/ha, read-out: Visual Growth Reduction (%) 14 Days After Application, TRZSS
property: pest or weed control at 140 g/ha

smiles_code=COC(=O)c1nc(-c2cc(F)c(C)cc2F)nc(N)c1OC result="0 to 29%"
smiles_code=Nc1cc(-c2c(F)cc(Br)c(F)c2F)nc(C(=O)O)c1Cl result="45 to 59%"
smiles_code=COC(=O)c1nc(-c2cc(F)c(C(F)F)cc2F)cc(N)c1Cl result="30 to 44%"
smiles_code=COc1c(N)nc(-c2cc(F)c(C)cc2F)nc1C(=O)O result="0 to 29%"
smiles_code=COC(=O)c1nc(-c2ccc(C#N)cc2F)c(F)c(N)c1Cl result="30 to 44%"
smiles_code=Cc1c(-c2ccc(I)c(F)c2)nc(C(=O)O)c(Cl)c1N result="60 to 74%"
smiles_code=C#Cc1ccc(-c2nc(C(=O)OC)c(Cl)c(N)c2C)cc1F result="0 to 29%"
smiles_code=Nc1cc(-c2cc(F)c(C(F)F)cc2F)nc(C(=O)O)c1Cl result="0 to 29%"

====

# System: Key Grass and Sedge Weeds as well as Grass Crops
# method: Post-emergent Test II herbicidal activity (Table 6)
# Format: in vivo
# protocol conditions: post-emergence, 336 h, SORVU: grain sorghum (Sorghum vulgare), 70 g ai/ha, read-out: Visual Growth Reduction (%) 14 Days After Application, SORVU
property: pest or weed control at 70 g/ha

smiles_code=Nc1c(F)c(-c2ccccc2)nc(C(=O)O)c1Cl property="pest or weed control at 70 g/ha" result="0 to 29%"
smiles_code=Nc1cc(-c2ccc(I)cc2)nc(C(=O)O)c1Cl property="pest or weed control at 70 g/ha" result="75 to 84%"
smiles_code=Cc1ccc(-c2nc(C(=O)O)c(Cl)c(N)c2F)cc1F property="pest or weed control at 70 g/ha" result="60 to 74%"
smiles_code=Nc1c(F)c(-c2ccc(Br)cc2F)nc(C(=O)O)c1Cl property="pest or weed control at 70 g/ha" result="85 to 94%"
smiles_code=COC(=O)c1nc(-c2ccc(I)c(F)c2F)c(F)c(N)c1Cl property="pest or weed control at 70 g/ha" result="95 to 100%"
smiles_code=COC(=O)c1nc(-c2ccc(I)cc2F)nc(N)c1OC property="pest or weed control at 70 g/ha" result="0 to 29%"
smiles_code=N#Cc1ccc(-c2nc(C(=O)O)c(Cl)c(N)c2F)cc1F property="pest or weed control at 70 g/ha" result="60 to 74%"
smiles_code=COC(=O)c1nc(-c2ccc(C#N)c(F)c2F)c(F)c(N)c1Cl property="pest or weed control at 70 g/ha" result="0 to 29%"
smiles_code=C#Cc1ccc(-c2nc(C(=O)O)c(Cl)c(N)c2F)cc1 property="pest or weed control at 70 g/ha" result="75 to 84%"
smiles_code=COC(=O)c1nc(-c2ccc(C(F)(F)F)c(F)c2)c(F)c(N)c1Cl property="pest or weed control at 70 g/ha" result="60 to 74%"
smiles_code=COC(=O)c1nc(-c2ccc(Br)c(F)c2F)cc(N)c1Cl property="pest or weed control at 70 g/ha" result="95 to 100%"
smiles_code=Nc1c(F)c(-c2ccc(C(F)(F)F)c(F)c2F)nc(C(=O)O)c1Cl property="pest or weed control at 70 g/ha" result="85 to 94%"
smiles_code=C#Cc1ccc(-c2nc(C(=O)OC)c(Cl)c(N)c2F)cc1 property="pest or weed control at 70 g/ha" result="85 to 94%"
smiles_code=COC(=O)c1nc(-c2ccc(OC(F)F)cc2F)c(F)c(N)c1Cl property="pest or weed control at 70 g/ha" result="0 to 29%"
smiles_code=COC(=O)c1nc(-c2ccc(Br)cc2F)c(F)c(N)c1Cl property="pest or weed control at 70 g/ha" result="95 to 100%"
smiles_code=COc1c(N)nc(-c2ccc(I)cc2)nc1C(=O)O property="pest or weed control at 70 g/ha" result="75 to 84%"
smiles_code=Nc1cc(-c2ccc(Br)c(F)c2F)nc(C(=O)O)c1Cl property="pest or weed control at 70 g/ha" result="75 to 84%"
smiles_code=COC(=O)c1nc(-c2ccc(Br)cc2)nc(N)c1OC property="pest or weed control at 70 g/ha" result="0 to 29%"
smiles_code=COc1c(N)nc(-c2ccc(Br)cc2F)nc1C(=O)O property="pest or weed control at 70 g/ha" result="45 to 59%"
smiles_code=COC(=O)c1nc(-c2ccc(I)cc2)c(F)c(N)c1Cl property="pest or weed control at 70 g/ha" result="95 to 100%"
smiles_code=COC(=O)c1nc(-c2ccc(I)cc2)nc(N)c1OC property="pest or weed control at 70 g/ha" result="30 to 44%"
smiles_code=Nc1c(F)c(-c2ccc(Br)cc2)nc(C(=O)O)c1Cl property="pest or weed control at 70 g/ha" result="95 to 100%"
smiles_code=Nc1c(F)c(-c2ccc(I)cc2F)nc(C(=O)O)c1Cl property="pest or weed control at 70 g/ha" result="95 to 100%"
smiles_code=C#Cc1ccc(-c2nc(N)c(OC)c(C(=O)OC)n2)c(F)c1 property="pest or weed control at 70 g/ha" result="0 to 29%"
smiles_code=C#Cc1ccc(-c2nc(C(=O)OC)c(Cl)c(N)c2F)cc1F property="pest or weed control at 70 g/ha" result="60 to 74%"
smiles_code=COC(=O)c1nc(-c2ccccc2)nc(N)c1OC property="pest or weed control at 70 g/ha" result="0 to 29%"
smiles_code=COC(=O)c1nc(-c2ccc([N+](=O)[O-])cc2)c(F)c(N)c1Cl property="pest or weed control at 70 g/ha" result="60 to 74%"
smiles_code=Nc1cc(-c2ccc(Br)cc2)nc(C(=O)O)c1Cl property="pest or weed control at 70 g/ha" result="95 to 100%"
smiles_code=COC(=O)c1nc(-c2ccc(C(F)(F)F)c(F)c2F)nc(N)c1OC property="pest or weed control at 70 g/ha" result="30 to 44%"
